# System: Caco-2 cells
# experiment: Drug transport across human Caco-2 cells
# Assay type: in vitro ADME
# cond: Caco-2 monolayers, basal-to-apical, pH 7.2, 37° C.
property_name: PEBA (cm/s)
Give just the number in cm/s; leave the unit off.

[ask] // PEBA lookup, key: C[C@H](CO)NC(=O)N1C(=O)N(c2cccc(C(F)(F)F)c2)C2=C(C(=O)CC2)C1c1ccc(C#N)cc1 (stereo partly drawn)
[reply] 0.0000815

[ask] // PEBA lookup, key: N#Cc1ccc(C2C3=C(CCC3=O)N(c3cccc(C(F)(F)F)c3)C(=O)N2C(=O)NCCCO)cc1 (stereo not drawn)
[reply] 0.0000671

[ask] // PEBA lookup, key: CC(C)(O)CCNC(=O)N1C(=O)N(c2cccc(C(F)(F)F)c2)C2=C(C(=O)CC2)C1c1ccc(C#N)cc1 (stereo not drawn)
[reply] 0.0000807

[ask] // PEBA lookup, key: N#Cc1ccc(C2C3=C(CCC3=O)N(c3cccc(C(F)(F)F)c3)C(=O)N2C(=O)NC2(CO)CC2)cc1 (stereo not drawn)
[reply] 0.000077

[ask] // PEBA lookup, key: N#Cc1ccc(C2C3=C(CCC3=O)N(c3cccc(C(F)(F)F)c3)C(=O)N2C(=O)NC2CCOCC2)cc1 (stereo not drawn)
[reply] 0.0000577

[ask] // PEBA lookup, key: CN1C(=O)N(c2cccc(C(F)(F)F)c2)C2=C(C(=O)CC2)C1c1ccc(C#N)cc1[S+](C)[O-] (single isomer, unassigned) [Example 30A]
[reply] 0.000039
